// provenance: patent US20140378454A1

# Protocol Text: Dissolution rate measurement in sink conditions, flow through cell system, FaSSIF, 37° C.
# Assay type: physicochemical
# Experimental Conditions: sink condition in FaSSIF, initial slope of accumulated % solubilized vs time, 0 to 10 minutes
Structures can show the parent of a compound that is named as a salt.
Reported Metric: Initial Dissolution Rate

// below: answered molecules
Molecule: C[C@@H](Oc1cc(-c2cnn(C3CCNCC3)c2)cnc1N)c1c(Cl)ccc(F)c1Cl [Exp 570, crizotinib]
Initial Dissolution Rate: 6.6
--
Molecule: CNC(=O)c1cc(Oc2ccc(NC(=O)Nc3ccc(Cl)c(C(F)(F)F)c3)cc2)ccn1 [Exp 560, sorafenib tosylate]
Initial Dissolution Rate: 0.47
--
Molecule: C#Cc1cccc(Nc2ncnc3cc(OCCOC)c(OCCOC)cc23)c1 [Exp 510, erlotinib HCl]
Initial Dissolution Rate: 0.303
--
Molecule: Cc1cn(-c2cc(NC(=O)c3ccc(C)c(Nc4nccc(-c5cccnc5)n4)c3)cc(C(F)(F)F)c2)cn1 [Exp 500, nilotinib HCl]
Initial Dissolution Rate: 0.27

A. CS(=O)(=O)CCNCc1ccc(-c2ccc3ncnc(Nc4ccc(OCc5cccc(F)c5)c(Cl)c4)c3c2)o1 [Exp 530, lapatinib ditosylate]
B. COc1cc2ncnc(Nc3ccc(F)c(Cl)c3)c2cc1OCCCN1CCOCC1 [Exp 540, gefitinib]
input: Quick one: lower Initial Dissolution Rate, A or B ? Respond with the label that goes with your answer.
output: A

###

# Protocol Text: Dissolution measurement assay (apparent solubility) in FaSSIF, pH 6.5
# Type: physicochemical
# Experimental Conditions: 80 min, pH 6.5
Structures can show the parent of a compound that is named as a salt.
Reported Metric: Conc (mg/L) 80 min

P. CNC(=O)c1cc(Oc2ccc(NC(=O)Nc3ccc(Cl)c(C(F)(F)F)c3)cc2)ccn1 [Exp 142, sorafenib tosylate]
Q. CNC(=O)c1ccccc1Sc1ccc2c(/C=C/c3ccccn3)n[nH]c2c1
input: When P and Q are compared, which has the higher number for Conc (mg/L) 80 min? Respond with the label that goes with your answer.
output: P
(P: 311.5 mg/L, Q: 0.6 mg/L)

P. C[C@@H](Oc1cc(-c2cnn(C3CCNCC3)c2)cnc1N)c1c(Cl)ccc(F)c1Cl
Q. CCCS(=O)(=O)Nc1ccc(F)c(C(=O)c2c[nH]c3ncc(-c4ccc(Cl)cc4)cc23)c1F
R. Cc1nc(Nc2ncc(C(=O)Nc3c(C)cccc3Cl)s2)cc(N2CCN(CCO)CC2)n1
input: // ranking: key=Conc (mg/L) 80 min, reverse=True Sort and list the labels as requested.
output: P, R, Q

###

# Protocol Text: Dissolution measurement assay (apparent solubility) in FaSSIF, pH 6.5
# Type: physicochemical
# Experimental Conditions: 40 min, pH 6.5
Structures can show the parent of a compound that is named as a salt.
Reported Metric: Conc (mg/L) 40 min

Compound: CNC(=O)c1ccccc1Sc1ccc2c(/C=C/c3ccccn3)n[nH]c2c1
Reported Metric: Conc (mg/L) 40 min
Numeric Value: 0.6
--
Compound: CNC(=O)c1cc(Oc2ccc(NC(=O)Nc3ccc(Cl)c(C(F)(F)F)c3)cc2)ccn1 [Exp 142, sorafenib tosylate]
Reported Metric: Conc (mg/L) 40 min
Numeric Value: 343.5

a. Cc1nc(Nc2ncc(C(=O)Nc3c(C)cccc3Cl)s2)cc(N2CCN(CCO)CC2)n1
b. C[C@@H](Oc1cc(-c2cnn(C3CCNCC3)c2)cnc1N)c1c(Cl)ccc(F)c1Cl
c. CCCS(=O)(=O)Nc1ccc(F)c(C(=O)c2c[nH]c3ncc(-c4ccc(Cl)cc4)cc23)c1F
input: Arrange the 3 entries by Conc (mg/L) 40 min so the values rise. Sort and list the labels as requested.
output: c, a, b
(c: 0.3 mg/L, a: 59.7 mg/L, b: 226.5 mg/L)
